The reader will find reported efflux ratio at 120 min, 1 μM values listed item by item below.
Molecular target: MDR1 (P-gp) (Homo sapiens, UniProt P08183)
Construct: host or cells: MDCK cells
Sequence (P08183 whole entry): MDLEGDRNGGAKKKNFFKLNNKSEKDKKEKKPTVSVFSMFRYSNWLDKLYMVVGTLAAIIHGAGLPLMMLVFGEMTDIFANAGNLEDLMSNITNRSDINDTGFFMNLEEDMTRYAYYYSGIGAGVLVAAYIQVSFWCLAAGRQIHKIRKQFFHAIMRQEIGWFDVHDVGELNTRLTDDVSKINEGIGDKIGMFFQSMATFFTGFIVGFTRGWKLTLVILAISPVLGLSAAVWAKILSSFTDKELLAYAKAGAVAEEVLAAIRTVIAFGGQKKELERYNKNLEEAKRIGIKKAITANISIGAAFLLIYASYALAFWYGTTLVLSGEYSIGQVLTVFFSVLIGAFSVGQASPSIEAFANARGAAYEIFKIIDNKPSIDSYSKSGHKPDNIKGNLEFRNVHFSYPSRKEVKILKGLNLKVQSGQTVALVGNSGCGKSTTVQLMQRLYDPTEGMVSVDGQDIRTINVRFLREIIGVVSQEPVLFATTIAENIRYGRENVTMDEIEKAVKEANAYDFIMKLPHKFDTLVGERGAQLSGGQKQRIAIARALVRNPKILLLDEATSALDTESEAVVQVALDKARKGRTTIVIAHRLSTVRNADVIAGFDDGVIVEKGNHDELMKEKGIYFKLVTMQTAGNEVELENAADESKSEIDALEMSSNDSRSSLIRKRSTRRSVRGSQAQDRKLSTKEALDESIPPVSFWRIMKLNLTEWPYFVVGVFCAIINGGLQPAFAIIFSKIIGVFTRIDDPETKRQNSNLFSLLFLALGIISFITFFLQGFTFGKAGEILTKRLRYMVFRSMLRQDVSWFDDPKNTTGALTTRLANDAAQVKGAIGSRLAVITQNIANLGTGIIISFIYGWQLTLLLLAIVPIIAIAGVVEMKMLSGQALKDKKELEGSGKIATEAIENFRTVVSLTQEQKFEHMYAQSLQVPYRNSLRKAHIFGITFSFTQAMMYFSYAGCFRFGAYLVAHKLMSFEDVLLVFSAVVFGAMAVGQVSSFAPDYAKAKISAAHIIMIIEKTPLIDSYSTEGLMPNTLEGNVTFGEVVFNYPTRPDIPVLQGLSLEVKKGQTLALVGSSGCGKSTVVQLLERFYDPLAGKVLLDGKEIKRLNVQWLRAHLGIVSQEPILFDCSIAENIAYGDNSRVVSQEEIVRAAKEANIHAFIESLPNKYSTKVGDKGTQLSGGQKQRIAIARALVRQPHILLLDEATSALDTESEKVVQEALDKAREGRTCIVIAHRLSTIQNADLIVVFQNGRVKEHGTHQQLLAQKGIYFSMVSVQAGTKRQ
Test: MDR1-MDCK assay (efflux ratio)
Assay type: in vitro ADME
Details: human, MDCK-MDR1, 1 μM compound, 120 minutes incubation; read-out: MDR1-MDCK Efflux Ratio; (B-A/A-B)
Counter-ions that a name gives are not always drawn.
Measured Metric: efflux ratio at 120 min, 1 μM

INSERT INTO measurements (molecule, measured_metric, reported_measurement) VALUES
  ('COc1cccc(NC(=O)c2cc3cn(C4CCOC4)nc3cc2OC)n1.O=C(O)C(F)(F)F (centres unmarked)', 'efflux ratio at 120 min, 1 μM', 0.4),
  ('Cc1cnc2c(NC(=O)c3cc4cn(C[C@@H]5CCOC5)nc4nc3OC3CCC3)cnn2c1 (single isomer, unassigned)', 'efflux ratio at 120 min, 1 μM', 5.9),
  ('COc1cccc(NC(=O)c2cc3cn(CC4CCOC4)nc3cn2)n1.O=C(O)C(F)(F)F (centres unmarked)', 'efflux ratio at 120 min, 1 μM', 0.6),
  ('CC(C)Oc1nc2nn(C[C@H]3CCOC3)cc2cc1C(=O)Nc1ccn(C(F)F)n1 (single isomer, unassigned)', 'efflux ratio at 120 min, 1 μM', 2.2),
  ('Cn1ccc(NC(=O)c2cc3cn(C45CCC(C)(CC4)OC5)nc3cc2OC2CCC2)n1', 'efflux ratio at 120 min, 1 μM', 0.9),
  ('CC(C)Oc1nc2nn(C[C@@H]3CCOC3)cc2cc1C(=O)Nc1ccn(C(F)F)n1 (single isomer, unassigned)', 'efflux ratio at 120 min, 1 μM', 2.1),
  ('CC(C)Oc1cc2nn(C34COC(C)(C3)C4)cc2cc1C(=O)Nc1cccn(C(F)F)c1=O', 'efflux ratio at 120 min, 1 μM', 0.8),
  ('CC(C)Oc1cc2nn([C@@H]3CCOC3)cc2cc1C(=O)Nc1cccc(C(F)F)n1 (single isomer, unassigned)', 'efflux ratio at 120 min, 1 μM', 1),
  ('COc1ncccc1NC(=O)c1cc2cn(CC3CCOC3)nc2nc1OC(C)C (centres unmarked)', 'efflux ratio at 120 min, 1 μM', 1.4),
  ('CC(C)Oc1nc2nn([C@H]3CCCOC3)cc2cc1C(=O)Nc1cnn2cccnc12 (single isomer, unassigned)', 'efflux ratio at 120 min, 1 μM', 1.1),
  ('Cn1cccc(NC(=O)c2cc3cn(C[C@@H]4CCOC4)nc3nc2OC2CCC2)c1=O (single isomer, unassigned)', 'efflux ratio at 120 min, 1 μM', 5.3),
  ('Cc1cnc2c(NC(=O)c3cc4cn(C56COC(C)(C5)C6)nc4cc3OC3CCC3)cnn2c1 [Example 56, Trifluoroacetate]', 'efflux ratio at 120 min, 1 μM', 2),
  ('O=C(Nc1ccn(C(F)F)n1)c1cc2cn(C[C@H]3CCOC3)nc2nc1OC1CCCC1 (single isomer, unassigned)', 'efflux ratio at 120 min, 1 μM', 2.5),
  ('COc1cc2nn(C34COC(C)(C3)C4)cc2cc1C(=O)Nc1cccc(C(F)F)n1 [Example 87, trifluoroacetate]', 'efflux ratio at 120 min, 1 μM', 0.7),
  ('CC12CCC(n3cc4cc(C(=O)Nc5cnn6cccnc56)c(OC5CCC5)cc4n3)(CO1)C2 (single isomer, unassigned)', 'efflux ratio at 120 min, 1 μM', 2.1),
  ('COCCCn1cc2cc(C(=O)Nc3cccc(C(F)F)n3)c(OC(C)C)nc2n1.Cl', 'efflux ratio at 120 min, 1 μM', 1.7),
  ('CC(C)Oc1cc2nn([C@]34CC[C@](C)(C3)OC4)cc2cc1C(=O)Nc1cccc(C(F)F)n1 (single isomer, unassigned)', 'efflux ratio at 120 min, 1 μM', 0.5),
  ('Cc1cnc2c(NC(=O)c3cc4cn(C5CCCOC5)nc4nc3OC3CCC3)cnn2c1 (single isomer, unassigned)', 'efflux ratio at 120 min, 1 μM', 2.6),
  ('CC(C)Oc1cc2nn([C@@H]3CCOC(C)(C)C3)cc2cc1C(=O)Nc1cccc(C(F)F)n1 (single isomer, unassigned)', 'efflux ratio at 120 min, 1 μM', 1.2),
  ('CC(C)Oc1cc2nn(CCC(C)(C)O)cc2cc1C(=O)Nc1cccc(C(F)F)n1', 'efflux ratio at 120 min, 1 μM', 1.7),
  ('COc1cc2nn(C[C@@H]3CCOC3)cc2cc1C(=O)Nc1cccc(C(F)F)n1 (single isomer, unassigned)', 'efflux ratio at 120 min, 1 μM', 1),
  ('Cc1cnc2c(NC(=O)c3cc4cn(C56CCC(C)(C5)OC6)nc4cc3OC(C)C)cnn2c1 (centres unmarked) [Example 99, trifluoroacetate]', 'efflux ratio at 120 min, 1 μM', 1.2),
  ('CCOc1cc2nn(C34COC(C)(C3)C4)cc2cc1C(=O)Nc1cccn(C)c1=O', 'efflux ratio at 120 min, 1 μM', 1.8),
  ('CC(C)Oc1cc2nn(CC34COC(C)(C3)C4)cc2cc1C(=O)Nc1cccc(C(F)F)n1.Cl', 'efflux ratio at 120 min, 1 μM', 1.3),
  ('COCCn1cc2cc(C(=O)Nc3cccc(C(F)F)n3)c(OC(C)C)cc2n1.Cl', 'efflux ratio at 120 min, 1 μM', 0.4),
  ('Cc1cccc(NC(=O)c2cc3cn(C4CCOCC4)nc3cc2OC(C)C)c1F', 'efflux ratio at 120 min, 1 μM', 1.4),
  ('COc1ncccc1NC(=O)c1cc2cn(C34COC(C)(C3)C4)nc2cc1OC(C)C [Example 90, trifluoroacetate]', 'efflux ratio at 120 min, 1 μM', 0.7),
  ('COc1ncccc1NC(=O)c1cc2cn(C3CCOCC3)nc2cc1OC(C)C', 'efflux ratio at 120 min, 1 μM', 1),
  ('COCCCn1cc2cc(C(=O)Nc3cccc(C(F)F)n3)c(OC(C)C)cc2n1.Cl', 'efflux ratio at 120 min, 1 μM', 0.7);
